Assay: chemical genetic growth profiling, strain panel (AID 1159580);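 also: tested at 20 µM; growth read once vehicle control cultures reached saturation at 30 °C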
Settings: S. cerevisiae deletion strains, growth OD, locus YNR049C, strain mso1, stronger effect = lower value
Among all 5,500 compounds or so, about 2,000 (36%) were called active. Another 18% or so got no clear call; they are omitted. The list shows a part of the results.
Classify: Condition met when normalized growth is strictly less than 1; Condition not met when normalized growth is not.

• CC1(C)CC(O)C2(C)CCC3(C)C(=CCC4C5(C)CCC(O)C(C)(CO)C5CCC43C)C2C1 (configuration not stated) = Condition not met
• CC(=O)O[C@H]1CC[C@@]2(C)C(CC[C@]3(C)C2CC=C2C4CC(C)(C)CC[C@]4(C)CC[C@]23C)C1(C)C (some centres not stated) = Condition met
• Nc1c2ccccc2nc2ccccc12 (tested in a mixture with another compound) = Condition met
• O=C(Nc1ccc(C(=O)O)c(O)c1)c1ccccc1 = Condition met
• Cc1ccc(-c2cc(C(F)(F)F)nn2-c2ccc(S(N)(=O)=O)cc2)cc1 = Condition not met
• C[C@@H]1OC(O[C@H]2C(O[C@H]3CC[C@@]4(C)C(CC[C@]5(C)C4CC=C4C6CC(C)(C)CC[C@]6(C(=O)O)CC[C@]45C)[C@]3(C)CO)OC[C@H](O)[C@@H]2O)[C@H](O)[C@H](O)[C@H]1O (some centres not stated) = Condition met
